Molecular target: BACE1 (Homo sapiens, UniProt P56817)
Construct: Human HEK293 cells which are stably transfected with a vector expressing a cDNA of the human APP wt gene (APP695); endogenous in cells; host or cells: HEK293 cells stably expressing human APP695 wt
Sequence (P56817 46-501): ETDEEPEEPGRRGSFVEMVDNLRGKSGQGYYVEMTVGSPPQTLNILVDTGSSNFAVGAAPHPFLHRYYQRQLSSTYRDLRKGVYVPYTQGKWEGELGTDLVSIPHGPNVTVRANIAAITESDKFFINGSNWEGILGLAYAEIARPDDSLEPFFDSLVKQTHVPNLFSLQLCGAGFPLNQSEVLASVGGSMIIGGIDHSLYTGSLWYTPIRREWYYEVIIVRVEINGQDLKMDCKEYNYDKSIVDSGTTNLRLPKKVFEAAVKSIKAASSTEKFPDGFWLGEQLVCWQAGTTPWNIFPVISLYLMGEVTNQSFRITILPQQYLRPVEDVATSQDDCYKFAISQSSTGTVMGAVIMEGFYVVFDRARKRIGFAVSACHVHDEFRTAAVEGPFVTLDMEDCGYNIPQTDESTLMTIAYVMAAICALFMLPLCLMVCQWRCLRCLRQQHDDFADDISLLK
Assay: Cellular Aβ-lowering assay a) (Aβ40 ELISA, HEK293 APP cells)
Type: cell-based
Conditions: cellular assay a): HEK293 APP695 cells, 18-20 hrs incubation, read-out: BACE1 cell act. Aβ40 IC50
Method: Cellular Aβ-Lowering Assay: a) Human HEK293 cells which are stably transfected with a vector expressing a cDNA of the human APP wt gene (APP695) were used to assess the potency of the compounds in a cellular assay. […] After stopping the reaction with one volume 1 NH2SO4 the reaction was measured in an ELISA reader at 450 nm wavelength. The concentrations of Aβ in the culture supernatants were calculated from a standard curve obtained with known amounts of pure Aβ peptide.
Where a name gives a salt, the structure may show the parent alone.
Checkbox rule: IC50 lower than 1000 nM = Met; IC50 not lower than 1000 nM = Not met.

Consider the worked cases shown below.
- COMPOUND: "CC(Nc1ccc(F)c([C@@]2(C)N=C(N)OCC2(F)F)c1)c1nn(C)cc1Cl (mixture of isomers)"
  MEASURED ON: "BACE1 (Homo sapiens, UniProt P56817)"
  LABEL: "Not met"
- COMPOUND: "CC(Nc1ccc(F)c([C@@]2(C)N=C(N)OCC2(F)F)c1)c1cc(C2CC2)on1 (mixture of isomers)"
  MEASURED ON: "BACE1 (Homo sapiens, UniProt P56817)"
  LABEL: "Not met"
- COMPOUND: "C[C@]1(c2cc(NC3COC3)ccc2F)N=C(N)OCC1(F)F"
  MEASURED ON: "BACE1 (Homo sapiens, UniProt P56817)"
  LABEL: "Not met"

API: query returns whether the compound falls strictly under 1000 nM in IC50. Query: "C[C@]1(c2cc(NCC3CC3)ccc2F)N=C(N)OC[C@@H]1F"
Met

API: query returns whether the compound falls strictly under 1000 nM in IC50. Query: CC1(C)OC(N)=N[C@](C)(c2cc(-c3cncc(Cl)c3)ccc2F)C1(F)F [Example 50, Hydrochloride]
Not met

API: query returns whether the compound falls strictly under 1000 nM in IC50. Query: Cc1cc(C(C)Nc2ccc(F)c([C@@]3(C)N=C(N)OCC3(F)F)c2)[nH]n1 (mixture of isomers)
Met

API: query returns whether the compound falls strictly under 1000 nM in IC50. Query: "CC1(C)OC(N)=N[C@](C)(c2cc(Nc3ccccc3C(F)(F)F)ccc2F)C1(F)F"
Not met

API: query returns whether the compound falls strictly under 1000 nM in IC50. Query: C[C@]1(c2cc(NCC3CCOC3)ccc2F)N=C(N)OCC1(F)F (mixture of isomers)
Not met

====

Target: BACE1 (Homo sapiens)
Construct: Human HEK293 cells which are stably transfected with a vector expressing a cDNA of the human APP wt gene (APP695); endogenous in cells; host or cells: HEK293 cells stably expressing human APP695 wt
Test: Cellular Aβ-lowering assay a) (Aβ40 ELISA, HEK293 APP cells)
Assay type: cell-based
Details: cellular assay a): HEK293 APP695 cells, 18-20 hrs incubation, read-out: BACE1 cell act. Aβ40 IC50
OUTCOME MEASURE: IC50 (nM)
Answers are plain numbers, in nM.

Field: example entries. Status: answers known.
- COMPOUND: "Cc1ccccc1Nc1ccc(F)c([C@@]2(C)N=C(N)OC(C)(C)C2(F)F)c1"
  IC50 / nM: 2920
- COMPOUND: "COc1ccccc1Nc1ccc(F)c([C@@]2(C)N=C(N)OC(C)(C)C2(F)F)c1"
  IC50 / nM: 2090
- COMPOUND: "C[C@]1(c2cccc(OCc3ccc(C#N)cc3)c2)N=C(N)OCC1(F)F"
  IC50 / nM: 1400
- COMPOUND: "CC1(C)OC(N)=N[C@](C)(c2cc(Nc3ccccc3C#N)ccc2F)C1(F)F"
  IC50 / nM: 1650
- COMPOUND: "C[C@]1(c2cc3c(cc2F)OCC(c2ccc(Cl)cn2)N3)N=C(N)OCC1(F)F (mixture of isomers)"
  IC50 / nM: 5460
- COMPOUND: "COc1ccccc1Nc1ccc(F)c([C@@]2(C)N=C(N)OC[C@@H]2F)c1"
  IC50 / nM: 310

Lab note: each compound below needs its IC50 filled in.
1. C[C@]1(c2cc(Nc3ccccc3OC(F)F)ccc2F)N=C(N)OC[C@@H]1F
2. C[C@]1(c2cc(NCc3nn(C(F)F)cc3Cl)ccc2F)N=C(N)OCC1(F)F
3. C[C@]1(c2cc(NCc3ccccc3F)ccc2F)N=C(N)OC[C@@H]1F
4. CC1(CNc2ccc(F)c([C@@]3(C)N=C(N)OCC3(F)F)c2)COC1
5. C[C@]1(c2cc(NC3CCOC3)ccc2F)N=C(N)OCC1(F)F (mixture of isomers)
6. C[C@]1(c2cc(-c3cncc(C#N)c3)ccc2F)N=C(N)OC[C@@H]1F

1: 370; 2: 113; 3: 780; 4: 300; 5: 400; 6: 190

Lab note: each compound below needs its IC50 filled in.
1. C[C@]1(F)COC(N)=N[C@]1(C)c1cc(NCc2nn(C(F)F)cc2Cl)ccc1F
2. CC1(C)OC(N)=N[C@](C)(c2cc(Nc3ccccc3Cl)ccc2F)C1(F)F
3. Cc1ccc(Cc2nc3ccc([C@@]4(C)N=C(N)OCC4(F)F)cc3[nH]2)cc1
4. C[C@]1(c2cc(NC3CCc4cc(Cl)cnc43)ccc2F)N=C(N)OCC1(F)F (mixture of isomers)
5. C[C@]1(c2cccc(OCc3ccc(Cl)cc3)c2)N=C(N)OCC1(F)F

1: 39; 2: 1470; 3: 300; 4: 73; 5: 4000
